ASSAY_SYSTEM: human ether-à-go-go-related gene (hERG) potassium channel (human, UniProt Q12809);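 note: peak tail current of the secondary pulse compared with the same well before compound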
Sequence (Q12809 whole entry, looked up): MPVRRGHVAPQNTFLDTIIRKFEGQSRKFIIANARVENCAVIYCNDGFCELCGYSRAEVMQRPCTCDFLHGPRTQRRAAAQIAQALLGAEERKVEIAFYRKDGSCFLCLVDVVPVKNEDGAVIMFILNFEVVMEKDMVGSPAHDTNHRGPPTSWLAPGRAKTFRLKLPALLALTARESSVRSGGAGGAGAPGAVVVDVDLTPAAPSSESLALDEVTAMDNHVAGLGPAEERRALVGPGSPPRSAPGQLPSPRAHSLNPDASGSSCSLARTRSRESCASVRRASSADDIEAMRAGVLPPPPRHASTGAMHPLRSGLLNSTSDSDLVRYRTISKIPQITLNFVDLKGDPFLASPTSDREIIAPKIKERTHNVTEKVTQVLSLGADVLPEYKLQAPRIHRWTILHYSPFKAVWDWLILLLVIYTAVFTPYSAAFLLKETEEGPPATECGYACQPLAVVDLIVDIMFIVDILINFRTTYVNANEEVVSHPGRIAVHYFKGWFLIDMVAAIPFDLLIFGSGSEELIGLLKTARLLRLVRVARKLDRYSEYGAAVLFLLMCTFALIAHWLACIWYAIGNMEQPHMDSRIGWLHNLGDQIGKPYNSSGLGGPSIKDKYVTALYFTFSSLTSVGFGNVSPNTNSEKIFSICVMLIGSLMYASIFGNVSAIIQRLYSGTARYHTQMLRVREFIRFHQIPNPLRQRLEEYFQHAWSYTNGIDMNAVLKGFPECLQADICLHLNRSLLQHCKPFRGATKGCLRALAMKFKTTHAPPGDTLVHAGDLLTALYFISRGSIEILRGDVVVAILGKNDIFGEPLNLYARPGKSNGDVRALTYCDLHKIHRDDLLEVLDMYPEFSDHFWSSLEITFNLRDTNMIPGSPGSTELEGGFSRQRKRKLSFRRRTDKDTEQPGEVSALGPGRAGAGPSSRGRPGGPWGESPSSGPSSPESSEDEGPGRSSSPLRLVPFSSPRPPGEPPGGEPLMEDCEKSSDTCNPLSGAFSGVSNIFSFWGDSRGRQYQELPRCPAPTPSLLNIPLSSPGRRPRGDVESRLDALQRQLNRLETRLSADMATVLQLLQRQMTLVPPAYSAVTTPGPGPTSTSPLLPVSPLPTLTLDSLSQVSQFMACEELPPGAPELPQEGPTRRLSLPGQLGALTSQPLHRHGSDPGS
ASSAY_EXPLANATION: primary screen, population patch clamp on CHO cells stably expressing hERG; higher = less effect of the substance
Experimental: Briefly, Chinese hamster ovary (CHO) cells stably expressing the hERG channel were dislodged from tissue culture flasks and dispensed into PPC plates. […] During the recording, background leak currents were estimated by a 100 ms step to -80 mV from an initial holding potential of -70 mV and subtracted from the subsequent current measurement. The campaign was conducted in two phases using slight differences in recording protocol. […]
The campaign covered roughly 310,000 compounds. About 14,000 (4.5%) showed an effect of 50% or more. The effect is printed as a negative number. The list comes from a sample in which strong results are over-represented; it also holds close analogues and randomly drawn compounds.
VALUE_TYPE: hERG current change (%, negative = inhibition) at 10uM (%)
# value in %; strip the unit string

CC(=O)N(CCC(Cc1ccccc1)c1ccco1)Cc1ccco1 (centres unmarked) | -28.4
Fc1ccc(CNCc2ccco2)cc1 | 11.5
O=C(Nc1ccccc1N1CCN(C(=O)c2ccccc2)CC1)c1ccc(Br)o1 | -63.5
CC(=O)NCCC(Cc1ccccc1)c1ccco1 (centres unmarked) | 5.91
O=C(Nc1ccccc1N1CCCC1)c1ccco1 | 6.36

For `O=C(Nc1ccccc1N1CCN(C(=O)c2ccccc2)CC1)c1ccco1` , write its hERG current change (%, negative = inhibition) at 10uM.
-74.2
